# System: human PBMC
# test.method.notes: Toxicity test: PBMC survival in 24 h culture (MTT)
# measurement.context: 100 μg/ml, ANOVA, FIGS. 8A-8F (4B8M repeated per figure)
Non-standard residues stand in square brackets, D forms with d. Residues, ends and D or L forms follow the SMILES beside them. *: point of attachment. Bip = N[C@@H](Cc1ccc(-c2ccccc2)cc1)C(=O)O; β3hW = N[C@H](CC(=O)O)Cc1c[nH]c2ccccc12; Tic = O=C(O)[C@@H]1Cc2ccccc2CN1; β3hF = N[C@H](CC(=O)O)Cc1ccccc1; ΔPro = O=C(O)[C@@H]1C=CCN1; tBu = CC(C)(C)*
property.label: PBMC survival, P vs DMSO at appropriate dilution
Returns: the value as a bare number; no unit string appended.

Some compounds with recorded PBMC survival, P vs DMSO at appropriate dilution:
O=C1C[C@H](Cc2ccccc2)NC(=O)[C@@H]2CCCN2C(=O)[C@@H]2CCCN2C(=O)[C@H](Cc2c[nH]c3ccccc23)N1 [I-L] (cyclo(PP[β3hF]W)) :: 0.9957
O=C1C[C@H](Cc2ccccc2)NC(=O)[C@@H]2CCCN2C(=O)[C@@H]2CCCN2C(=O)[C@H](Cc2ccc(-c3ccccc3)cc2)N1 [I-AH] (cyclo([Bip]PP[β3hF])) :: 0.0001
O=C1N[C@@H](Cc2ccccc2)CC(=O)N2Cc3ccccc3C[C@H]2C(=O)N2CCC[C@H]2C(=O)N2CCC[C@@H]12 [I-AA] (cyclo(PP[β3hF][Tic])) :: 0.9978

Find the recorded PBMC survival, P vs DMSO at appropriate dilution belonging to O=C1C[C@H](Cc2c[nH]c3ccccc23)NC(=O)[C@@H]2CCCN2C(=O)[C@@H]2CCCN2C(=O)[C@H](Cc2ccccc2)N1 [I-AE] (cyclo(FPP[β3hW])) and report it. 0.9984

Find the recorded PBMC survival, P vs DMSO at appropriate dilution belonging to O=C1C[C@H](Cc2ccccc2)NC(=O)[C@@H]2CCCN2C(=O)[C@@H]2C=CCN2C(=O)[C@H](Cc2ccccc2)N1 [I-S] (cyclo(F[ΔPro]P[β3hF])) and report it. 1.0000

Find the recorded PBMC survival, P vs DMSO at appropriate dilution belonging to CC(C)(C)OC[C@@H]1NC(=O)[C@@H]2CCCN2C(=O)[C@H](Cc2ccccc2)NC(=O)C[C@H](Cc2ccccc2)NC1=O [I-AJ] (cyclo(FPS(tBu)[β3hF])) and report it. 0.9250
